src = ChEMBL document CHEMBL3593193

biological target: CYP3A4 (Homo sapiens); test: Reversible inhibition of CYP3A4 in human liver microsomes assessed as remaining enzyme activity by measuring midazolam to 1'-hydroxymidazolam conversion at 5 uM pre-incubated for 30 mins before midazolam addition by LC-MS/MS method; format: ADME; conditions: probe midazolam (conversion to 1'-hydroxymidazolam), read-out: Activity
Metric Name: activity at 30 min, 5 µM (%)
Quick reminder: number only, in %, skip the unit.

query: Report activity at 30 min, 5 µM for C[C@@H]1CCCC[C@@H]1n1c(=O)[nH]c2cnc3[nH]ccc3c21
result: 95

---

target: CYP3A4 (Homo sapiens, UniProt P08684); experiment: Time dependent inhibition of CYP3A4 in human liver microsomes assessed as remaining enzyme activity by measuring midazolam to 1'-hydroxymidazolam conversion at 5 uM pre-incubated for 30 mins before midazolam addition by LC-MS/MS method; type: ADME; conditions: probe midazolam (conversion to 1'-hydroxymidazolam), read-out: Activity
Sequence (P08684 whole entry): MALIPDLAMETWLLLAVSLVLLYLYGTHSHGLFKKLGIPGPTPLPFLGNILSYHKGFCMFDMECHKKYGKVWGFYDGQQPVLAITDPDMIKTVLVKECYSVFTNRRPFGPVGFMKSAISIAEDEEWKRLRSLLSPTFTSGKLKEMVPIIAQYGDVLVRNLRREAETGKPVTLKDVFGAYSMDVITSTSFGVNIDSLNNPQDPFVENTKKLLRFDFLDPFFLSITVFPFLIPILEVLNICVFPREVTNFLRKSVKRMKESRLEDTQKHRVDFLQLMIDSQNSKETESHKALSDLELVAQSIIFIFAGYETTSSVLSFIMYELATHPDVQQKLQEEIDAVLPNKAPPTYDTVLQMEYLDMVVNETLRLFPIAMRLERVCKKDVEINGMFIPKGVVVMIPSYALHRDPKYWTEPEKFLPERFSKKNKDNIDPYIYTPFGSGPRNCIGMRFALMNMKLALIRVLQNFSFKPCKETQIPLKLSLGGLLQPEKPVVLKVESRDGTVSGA
Metric Name: activity at 30 min, 5 µM (%)
Please reply with the bare figure in % and do not write the unit itself.

Record excerpt, results attached:
compound=O=c1[nH]c2cnc3[nH]ccc3c2n1C1CCOCC1 study_system="CYP3A4 (Homo sapiens, UniProt P08684)" units_label=% meas_value=90
compound="C[C@@H]1CCN(C(=O)CC#N)C[C@@H]1n1c(=O)[nH]c2cnc3[nH]ccc3c21 (racemic)" study_system="CYP3A4 (Homo sapiens, UniProt P08684)" units_label=% meas_value=86

Now for a further compound.
query: Indicate its recorded activity at 30 min, 5 µM; the compound in question is C[C@@H]1CCCC[C@@H]1n1c(=O)[nH]c2cnc3[nH]ccc3c21
result: 49
